Data credit: patent US20220267379A1

molecular target: human Kallikrein-related peptidase 7 (hKLK7) (human), P49862; assay: enzyme inhibition; pyridine linker; settings: modification not given
Sequence (P49862 30-253): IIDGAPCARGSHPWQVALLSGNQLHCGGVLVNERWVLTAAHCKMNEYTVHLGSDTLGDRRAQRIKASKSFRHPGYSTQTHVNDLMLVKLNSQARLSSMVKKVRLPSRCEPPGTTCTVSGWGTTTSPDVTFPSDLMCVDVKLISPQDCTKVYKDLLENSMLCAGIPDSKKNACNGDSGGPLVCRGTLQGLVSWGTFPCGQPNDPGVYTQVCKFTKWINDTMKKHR
assay readout: Ki (nM)
# output: bare number, implied unit nM

Problem: Quick one: Ki of PCLYRSCS [086] ?
Solution: 53

Problem: Quick one: Ki of PCLYLSCS [080] ?
Solution: 29.4

Problem: Quick one: Ki of PCLYLSCP [089] ?
Solution: 50

Problem: Quick one: Ki of RCLYLSCS [082] ?
Solution: 8.8
